Data provenance is the CATMoS acute toxicity set (Mansouri et al. 2021).

experiment: rat acute oral toxicity; details: in vivo
Kindly apply the following: rule met if LD50 is less than 4000 mg/kg, rule not met in every other case.

Exercise: Problem: For the compound CCOCCOCCO , is LD50 under 4000 mg/kg?
Solution: rule not met

Exercise: I wonder whether CCCCOC(=O)CCCCCCCCC(=O)OCCCC has LD50 below 4000 mg/kg. Can you tell?
Solution: rule not met

Exercise: Please state whether LD50 is below 4000 mg/kg for CC(O)CCO (configuration not stated)
Solution: rule not met

Exercise: In the record for CCCCCC(C)OC(=O)COc1ccc(Cl)c2cccnc12 (configuration not stated) , is LD50 less than 4000 mg/kg?
Solution: rule met

Exercise: A record lists O=C1OC(=O)c2ccccc21 . Is its LD50 below 4000 mg/kg?
Solution: rule met

Exercise: Given C1CCSC1 , is recorded LD50 strictly lower than 4000 mg/kg?
Solution: rule met

Exercise: Would you kindly verify if LD50 of CCN(CC)CCCN is strictly less than 4000 mg/kg?
Solution: rule met

Exercise: Is it true that LD50 reported for CN(C)C=O is less than 4000 mg/kg?
Solution: rule met

Exercise: I'd appreciate it if you could check whether CNCCO has LD50 smaller than 4000 mg/kg.
Solution: rule met

Exercise: Check if LD50 falls below 4000 mg/kg for O=c1ccc(=O)[nH][nH]1 .
Solution: rule met

Exercise: Regarding Cc1ccc(N)c(C)c1 , kindly confirm whether its LD50 is beneath 4000 mg/kg.
Solution: rule met

Exercise: Please check: LD50 for COC(=O)C(C)Oc1ccc(Oc2ccc(Cl)cc2Cl)cc1 (configuration not stated) , strictly under 4000 mg/kg or not?
Solution: rule met

Exercise: Input CC(=O)Oc1ccc(C(c2ccc(OC(C)=O)cc2)c2ccccn2)cc1 ; condition: LD50 strictly below 4000 mg/kg. Does it hold?
Solution: rule not met

Exercise: Dear colleague, could you confirm whether LD50 of ClCC(Cl)Cl falls below 4000 mg/kg? Thanks.
Solution: rule met

Exercise: Field: below-cutoff. Rule: recorded LD50 strictly less than 4000 mg/kg. Subject: C=CC1CC2C=CC1C2 (configuration not stated)
Solution: rule not met

Exercise: Record Cc1ccccc1NC(=N)NC(=N)N : is its LD50 strictly below 4000 mg/kg?
Solution: rule met

Exercise: Please indicate whether the reported LD50 of CCCCOC(=O)CO is strictly below 4000 mg/kg.
Solution: rule not met

---

assay: GHS categories as the set defines them, by LD50: 1 up to 5, 2 up to 50, 3 up to 300, 4 up to 2000, 5 above 2000 mg/kg; conditions: rat; in vivo; po
Where a SMILES comes first, the peptide text is derived from it.
Would you kindly list GHS category for each of these molecules?
I only need the number, thanks.

Exercise: May I ask what GHS category has been recorded for FC(F)CCl ?
Solution: 5

Exercise: Consider the molecule CC(C)C1=CC2=CC[C@H]3[C@](C)(CO)CCC[C@]3(C)[C@H]2CC1 and give its measured GHS category.
Solution: 5

Exercise: What value of GHS category has been recorded for this entry: CC[C@H]1OC(=O)[C@H](C)[C@@H](O[C@H]2C[C@@](C)(OC)[C@@H](O)[C@H](C)O2)[C@H](C)[C@@H](O[C@@H]2O[C@H](C)C[C@H](N(C)C)[C@H]2O)[C@](C)(O)C[C@@H](C)CN(C)[C@H](C)[C@@H](O)[C@]1(C)O
Solution: 5

Exercise: Fill in: GHS category of CSC(C)=NOC(=O)N(C)SN(C)C(=O)Oc1ccccc1OC(=O)N(C)SN(C)C(=O)ON=C(C)SC is ___
Solution: 4

Exercise: Bench note: what GHS category did CCCCCCOC=O show?
Solution: 5

Exercise: What value of GHS category has been recorded for this entry: COC(=O)c1cc(Cl)ccc1OC(N)=O
Solution: 5

Exercise: I am curious: what GHS category value has been reported for Nc1nc(N)nc(NC(=O)NC(=O)c2ccc(Cl)cc2)n1 ?
Solution: 5

Exercise: Any idea what GHS category was measured for CC(C)c1cc2c(cc1S(=O)(=O)O)[C@@]1(C)CCC[C@@](C)(C(=O)O)[C@@H]1CC2 ?
Solution: 5

Exercise: Need GHS category, item CCCCCCC(O)CO (stereo unspecified)
Solution: 5

Exercise: # get_value(readout='GHS category', item= c1ccc2oc(C3(Cn4ccnc4)OCCCO3)cc2c1 )
Solution: 4

Exercise: Dear colleague, I am looking for the recorded GHS category of the following molecule: CC1CC(C)C(C)CC1C (stereo unspecified)
Solution: 5

Exercise: Query (molecule): CC(C)C(=O)OCC=Cc1ccccc1 ; field requested: GHS category
Solution: 5

Exercise: Would you mind telling me what GHS category value was observed for CCCCCC(=O)OC1(C(C)=O)CCC2C3CCC4=CC(=O)CCC4C3CCC21C (stereo unspecified) ?
Solution: 5

Exercise: Could you tell me which GHS category is on file for CCCOc1nn(C(=O)NS(=O)(=O)c2ccccc2C(=O)OC)c(=O)n1C ?
Solution: 5

Exercise: Using the record for O=C1OCCC1O (stereo unspecified) , report its GHS category.
Solution: 5

Exercise: Recorded GHS category of CN[C@@H]1[C@@H](O)[C@@H](O[C@@H]2[C@@H](O)[C@H](OC3OC(CN)=CCC3N)[C@@H](N)C[C@H]2N)OC[C@]1(C)O (stereo partly specified) , please.
Solution: 5

Exercise: GET /values?readout=GHS category&item= c1ccc2oc(-c3ccc(-c4nc5ccccc5o4)s3)nc2c1
Solution: 5

Exercise: Recorded GHS category for CCOC(=O)C(F)(F)F , please?
Solution: 5

Exercise: # get_value(readout='GHS category', item= O=C1C=CC(=NNc2ccc(N=Nc3ccc(-c4ccc(NN=C5C=CC(=O)C(C(=O)O)=C5)cc4)cc3)c3ccc(S(=O)(=O)O)cc23)C=C1 )
Solution: 5

Exercise: Would you mind telling me what GHS category value was observed for O=C(Nc1ccccc1-c1ccc(Cl)cc1)c1cccnc1Cl ?
Solution: 5

Exercise: I'd like to know its GHS category. The molecule in question is CCO[Si](CCCCl)(OCC)OCC
Solution: 5

Exercise: What value of measured GHS category is listed for Nc1c(I)c(C(=O)O)c(I)c(C(=O)NCC(O)CO)c1I (stereo unspecified) ?
Solution: 5

Exercise: Fill in: GHS category of CCCCCCCC/C=C\CCCCCCCC(=O)N(C)CC(=O)O is ___
Solution: 5

Exercise: Requested read-out: GHS category. Entry: CCCc1c(Cc2ccc(-c3ccccc3-c3nn[nH]n3)cc2)c(N2CCCC2)nc2ncnn12
Solution: 4

Exercise: What value of GHS category has been recorded for this entry: CCN(C(=O)CCCSc1nnnn1C)C1CCCCC1O (stereo unspecified)
Solution: 4

Exercise: Give its GHS category value. Item: FC(F)(Cl)C(F)(Cl)C(F)(Cl)C(F)(F)Cl (stereo unspecified)
Solution: 5

Exercise: Item CCOc1nn(-c2cccc(C(F)(F)F)c2)c2ncccc12 has what recorded GHS category?
Solution: 4

Exercise: Data request, read-out GHS category, for CCCCCCC(=O)OC
Solution: 5

Exercise: Recorded GHS category for CC1(C)S[C@@H]2[C@H](NC(=O)[C@H](N)c3ccccc3)C(=O)N2[C@H]1C(=O)OCOC(=O)[C@@H]1N2C(=O)C[C@H]2S(=O)(=O)C1(C)C , please?
Solution: 5

Exercise: Query (molecule): CC(CO)CO ; field requested: GHS category
Solution: 5

Exercise: Which GHS category is reported for this molecule? Oc1ccccc1
Solution: 5

Exercise: Endpoint output: GHS category of [C] . Value?
Solution: 5

Exercise: Dear colleague, I am looking for the recorded GHS category of the following molecule: CC1COCc2cc3c(cc21)C(C)(C)C(C)C3(C)C (stereo unspecified)
Solution: 5

Exercise: Requested read-out: GHS category. Entry: CCC=CCC=CCC=CCC=CCCCCCCC(=O)OCC
Solution: 5

Exercise: Name the recorded GHS category for CC(=O)OC1C=CC(C)=CCC(O)C=CC(C)=CC(NC(=O)C(C)=O)C2(C)C(=O)OC(C1)C(C)C2=O (stereo unspecified) .
Solution: 5

Exercise: Value lookup for GHS category; key = CCO[Si](C)(CCCCl)OCC
Solution: 5

Exercise: # query: GHS category of entry COc1ccccc1N1CCN(CC(O)COc2cccc3ccccc23)CC1 (stereo unspecified)
Solution: 5

Exercise: Value lookup for GHS category; key = COc1nc(OC)nc(C(=O)c2cccc(F)c2N(C)S(=O)(=O)C(F)(F)F)n1
Solution: 5

Exercise: Which GHS category value belongs to CCCc1c(Cc2ccc(-c3ncccc3-c3nn[nH]n3)cc2)c(=O)nc2nc[nH]n12 ?
Solution: 4

Exercise: Recorded GHS category for O=C1CCCCCCCCCCCCCCCO1 , please?
Solution: 5

Exercise: Consider the molecule shown here: NC(=O)Oc1ccccc1C(=O)Oc1ccc(Cl)cc1 What is its recorded GHS category?
Solution: 5

Exercise: Fill in: GHS category of O=[N+]([O-])c1ccc(Nc2ccccc2)cc1 is ___
Solution: 5

Exercise: I would be grateful if you could share the reported GHS category for NCC(=O)N[C@@H](CCC(N)=O)C(=O)O (H-Gly-Gln-OH) .
Solution: 5

Exercise: Look up GHS category: O=C(O)c1c(Cl)c(Cl)c(C(=O)O)c(Cl)c1Cl
Solution: 5

Exercise: What GHS category value was documented for this molecule, CCNC(=O)CCCSCc1nnnn1CC ?
Solution: 4

Exercise: May I ask what GHS category has been recorded for COc1cc(C(=O)OCc2cccc(COC(=O)c3cc(OC)c(OC)c(OC)c3)n2)cc(OC)c1OC ?
Solution: 5
